# Tested on: CAKI-1 renal
# ASSAY_PROCEDURE: NCI tumour cell line growth inhibition, 48 h
MEASURED_QUANTITY: GI50

> print(dat)
                                   compound     tested.on  assay.result
1  Cc1ccsc1-c1ccc2c(c1)COC2(CCCN(C)C)c1ccc(F)cc1 (stereo not drawn)  CAKI-1 renal       2190 nM
2  CC(C)C(=O)c1c(C(F)(F)F)n([O-])c2ccccc2[n+]1=O  CAKI-1 renal        689 nM

Lab book: GI50 of Cc1ccccc1C(C(=O)NC1CCCCC1)N(C(=O)CNc1ccc(C#N)cc1)c1cccc(F)c1 (stereo not drawn) noted as 14700 nM

###

# Test system: HL-60(TB) leukemia
# ASSAY_PROCEDURE: NCI tumour cell line growth inhibition, 48 h
MEASURED_QUANTITY: TGI

> print(dat)
                                   molecule  assay.result
1             COc1ccc(N=Nc2c(N)nn(C)c2N)cc1      > 100 µM
2  O=C(CSSCC(=O)OCCS(=O)(=O)Nc1ccc(Br)cc1)OCCS(=O)(=O)Nc1ccc(Br)cc1       38.7 µM
3  O=c1[nH]c(=O)n(CCOc2ccc(Cl)cc2)cc1Nc1ccccc1      > 100 µM
4  C=CC(=O)N1CC[C@H](n2nc(C#Cc3cc(OC)cc(OC)c3)c3c(N)ncnc32)C1       70.4 µM
5  O=[N+]([O-])C(/C=C(\Cl)[N+](=O)[O-])=C(N1CCCCC1)N1CCCCC1       41.7 µM
6         CC(=O)n1[nH]c(=O)n(-c2ccccc2)c1=O      > 100 µM
7  Cc1ccccc1Nc1nc(NNC(=O)Cc2ccccc2)nc(NNC(=O)c2ccncc2)n1       > 10 µM
8     COc1cc(CNc2cnc3ccc(N)cc3n2)cc(OC)c1OC      > 100 µM

Noted for CC(C)Cc1ccc(C(C)C(=O)NCc2ccc(Cn3c(=O)sn(CCCI)c3=O)cc2)cc1 (stereo not given) : its TGI reads > 22.7 µM

The recorded TGI for Nc1cc(Cl)ccc1SSc1ccc(Cl)cc1N is > 100 µM

###

# System: KM12 colon
# ASSAY_PROCEDURE: NCI tumour cell line growth inhibition, 48 h
MEASURED_QUANTITY: TGI

Reference set (5 entries):
> print(dat)
                                   compound   tested.on  measured.quantity  assay.result
1  CC(C)C(=O)c1c(C(F)(F)F)n([O-])c2ccccc2[n+]1=O  KM12 colon                TGI       1.65 µM
2  CCOC(=O)c1sc2nc1CSc1sc(=S)sc1SCc1nc(sc1C(=O)OCC)-c1nc(c(C(=O)OCC)s1)CSc1sc(=S)sc1SCc1nc-2sc1C(=O)OCC  KM12 colon                TGI       > 10 µM
3  O=C1CS(=O)(=O)C(c2cccc(Oc3ccccc3)c2)N1C1CC1 (centres undefined)  KM12 colon                TGI      > 100 µM
4  CCCC(=O)OC[n+]1ccc(-c2c(COC(=O)NC(C)C)c(COC(=O)NC(C)C)c3n2CCC3)cc1  KM12 colon                TGI      > 100 µM
5  C(#CC1(Nc2ccccc2)CCN(Cc2ccccc2)CC1)C1(Nc2ccccc2)CCN(Cc2ccccc2)CC1  KM12 colon                TGI     > 56.2 µM

Sure, the documented TGI for O=C1[C@@H](O)[C@@H]2CCCC[C@@]23CCCN13 is > 100 µM

Noted for COc1cc(C2c3cc4c(cc3OC(NCCO)C2C)OCO4)cc(OC)c1O (centres undefined) : its TGI reads > 100 µM

Field TGI (entry O=S(=O)(c1cc(Cl)ccc1Cl)N1CCN(c2cccc(Cl)c2)CC1 ) reads > 100 µM

Sample COC(=O)c1oc2c(C(=O)/C=C/c3ccc(OC)cc3)c(OCCN3CCOCC3)ccc2c1C ; TGI observed: 3.78 µM

###

Listing of entries alongside the reported TGI.
# System: SR leukemia
# ASSAY_PROCEDURE: NCI tumour cell line growth inhibition, 48 h
Your answer should be a plain number; it is taken to be in µM.

Some entries whose results are on file:
> print(dat)
                                   molecule  assay.result
1  O=C1c2c(Cl)c(Cl)c(Cl)c(Cl)c2C(=O)C2(Cl)CC=CCC12Cl (configuration not stated)          4.38
2  Cc1ccsc1-c1ccc2c(c1)COC2(CCCN(C)C)c1ccc(F)cc1 (configuration not stated)           7.3
3  CCC1CCC2c3c([nH]c4ccc(C)cc34)C3C(=O)N(N(C)C)C(=O)C3C2C1 (configuration not stated)          48.6
4  COc1cc(/C=C/C(=O)c2c(-c3ccc(F)cc3)nc3sc(C)nn23)cc(OC)c1OC          5.27
5  Cc1ccc(C(=O)N/N=C(\N=Nc2ccccc2Cl)c2ccc(N(C)C)cc2)cc1          68.7

# TGI (molecule: S=C1CC(c2ccccc2)Sc2cc(Cl)ccc2N1 (configuration not stated) ) is 83.7

// sample COc1ccc2c(c1)CCCc1c-2nc2ccccc2c1N , its TGI was 6.32

The molecule COc1cc(CNc2c3ccccc3nc3ccccc23)cc(OC)c1OC showed TGI equal to 7.58

# TGI (molecule: COc1cc(C2C(=O)C(Cl)N2Nc2nc(C)cc(=O)[nH]2)cc(OC)c1OC (configuration not stated) ) is 77.1

###

List of TGI values.
# Tested on: MDA-N
# ASSAY_PROCEDURE: NCI tumour cell line growth inhibition, 48 h
Where a SMILES comes first, the peptide text is derived from it.

Below are worked cases with known answers.
MOLECULE	TGI
O=C(CN=C(CN(c1ccccc1)c1ccccc1)Oc1ccc(Cl)cc1Cl)n1ccnc1	> 100 µM
Cc1ccc(C(=O)Oc2ccc(/C=C3\CCC/C(=C\c4ccc(OC(=O)c5ccc(C)cc5)cc4)C3=O)cc2)cc1	> 100 µM
Cc1cc(=O)n2c3c(c4c(cc13)c(CN(C)C)cc(=O)n4C)OC2	> 87.7 µM

Record for CN1C(=O)C2(c3ccccc31)C1CC3C(CO1)C1C2C3(CO)CN1C#N (configuration not stated) under target or system MDA-N: TGI reported as > 100 µM

Lab note: molecule S=C1CC(c2ccccc2)Sc2cc(Cl)ccc2N1 (configuration not stated) tested on MDA-N; recorded TGI was 39.6 µM

The recorded TGI with MDA-N for COC(=O)[C@]12CSC[C@H]1C[C@H](c1cccc3ccccc13)N2 was > 100 µM

Observed TGI, MDA-N, CC(=O)Nc1cc2nc3n(c2cc1C)CCC3OC(C)=O (configuration not stated) : > 100 µM

# O=S(=O)(c1cc(Cl)ccc1Cl)N1CCN(c2cccc(Cl)c2)CC1 with MDA-N: TGI is > 100 µM

MDA-N assay, molecule CCCCC1(O)CC2CC1C(C)C2(C)C (configuration not stated) , recorded TGI = > 100 µM

Measured TGI (MDA-N), entry CCC(C)C(NC(=O)C(CC(C)C)NC(=O)CNC(=O)C(NC(=O)C1CCCN1C(=O)C(CC(C)C)NC(=O)C(N)Cc1ccccc1)C(C)CC)C(=O)NC(CC(C)C)C(N)=O (configuration not stated) (H-FLPIGLIL-NH2; configuration not given here) : > 75 µM

Record CS(=O)(=O)O[C@H]1[C@H](O)c2ccccc2[C@@H]1N=[N+]=[N-] ; system MDA-N; TGI = > 100 µM

The recorded TGI with MDA-N for O=c1[nH]c(=O)n(CCOCP(=O)(O)O)nc1Br was > 100 µM

Per the reported MDA-N data, O=CN1CCC23CC(O)CCC2C1Cc1cc(Oc2nnnn2-c2ccccc2)cc(O)c13 (configuration not stated) has TGI of > 100 µM

Known value: MDA-N TGI of the molecule Cc1ccsc1C(=S)Nc1ccc(Cl)c(/C=N/OC(C)C)c1 equals > 100 µM

Param item: CN1CCN(CCCN2c3ccccc3Sc3ccc(Cl)cc32)CC1 ; param system: MDA-N; output TGI: 61.4 µM

The recorded TGI with MDA-N for CN1CC2=C(NC(=S)NC2c2ccccc2Cl)/C(=C/c2ccccc2Cl)C1 (configuration not stated) was > 100 µM

Note to self: TGI of COC(=O)/N=[N+](\[O-])C(c1ccccc1)c1ccccc1 with MDA-N was > 100 µM

###

# System: HCT-15 colon
# ASSAY_PROCEDURE: NCI tumour cell line growth inhibition, 48 h
// values below are reported TGI
Report only the number, with the unit µM understood.

> print(dat)
                                  compound  scale.unit  assay.result
1         CC[PH+](CC)CC.CC[PH+](CC)CC.[Au]          µM          25.7
2  NC(N)=N/N=C/c1c(-c2cccnc2)nc2sc(Cl)cn12          µM          28.1

Noted for COc1cc(C2c3cc4c(cc3OC(NCCO)C2C)OCO4)cc(OC)c1O (configuration not stated) : its TGI reads 46.9
